For each record, write down the corresponding IC50.
- Test system: MOLT-4F
- procedureDetails: Concentration required to reduce the viability of Human T-lymphoblast Molt/4F cells
- Assay type: functional, cell-based
Enter your answer as a number in µg/mL; do not include the unit.

Qu. May I ask what IC50 has been recorded for `Nc1ncnc2c1ncn2[C@@H]1O[C@H](CO)[C@@H](F)[C@H]1O` ?
Ans. 28

Qu. Same lookup for `Nc1nc(O)c2ncn([C@@H]3O[C@H](CO)[C@@H](F)[C@H]3O)c2n1` , please.
Ans. 75

Qu. Would you kindly repeat that for `Nc1ccn([C@@H]2O[C@H](CO)[C@H](F)[C@H]2O)c(=O)n1` ?
Ans. 65

====

- Test system: Vero
- procedureDetails: Concentration (MIC), which is required to reduce virus-induced cytopathogenicity in African green monkey kidney (Vero B) cells against Sindbis virus
- Type: functional
- conditions: Chlorocebus sabaeus
measurementName: MIC (µg/mL)
Give the number; µg/mL is assumed, so skip it.

Qu. Item under review: `Nc1ncnc2c1ncn2[C@@H]1O[C@H](CO)[C@@H](F)[C@H]1O` . Reported MIC?
Ans. 4

Qu. Can you check `Nc1ccn([C@@H]2O[C@H](CO)[C@H](F)[C@H]2O)c(=O)n1` next?
Ans. 300

Qu. Input `O=c1ccn([C@@H]2O[C@H](CO)[C@@H](F)[C@H]2O)c(=O)[nH]1`
Ans. 300

====

- procedureDetails: Concentration (MIC), required to reduce virus-induced cytopathogenicity in Primary rabbit kidney (PRK ) cells against Vesicular stomatitis virus type 1
- Format: functional
- conditions: Oryctolagus cuniculus
measurementName: MIC

Qu. Would you mind telling me what MIC value was observed for `Nc1ccn([C@@H]2O[C@H](CO)[C@H](F)[C@H]2O)c(=O)n1` ?
Ans. > 400 µg/mL

Qu. Same read-out for `Nc1nc(O)c2ncn([C@@H]3O[C@H](CO)[C@@H](F)[C@H]3O)c2n1` ?
Ans. > 200 µg/mL

Qu. Next: `O=c1ccn([C@@H]2O[C@H](CO)[C@@H](F)[C@H]2O)c(=O)[nH]1`
Ans. > 400 µg/mL

Qu. Now consider `Cc1cn([C@H]2O[C@H](CO)[C@@H](F)[C@H]2N=[N+]=[N-])c(=O)[nH]c1=O` and answer again.
Ans. < 400 µg/mL

Qu. Now consider `Cc1cn([C@@H]2O[C@H](CO)[C@@H](F)[C@H]2N=[N+]=[N-])c(=O)[nH]c1=O` and answer again.
Ans. > 400 µg/mL

Qu. Thanks! And [N-]=[N+]=NC1C(F)C(CO)OC1n1ccc(N)nc1=O (stereo unspecified) ?
Ans. > 300 µg/mL

====

- Test system: Vero
- procedureDetails: Concentration (MCC) required to cause a microscopically detectable alteration of normal cell morphology, African green monkey kidney (Vero B) cells
- Format: functional
- conditions: Chlorocebus sabaeus
measurementName: MCC

Qu. Requested read-out MCC, target or system Vero, entry `Nc1ccn([C@@H]2O[C@H](CO)[C@H](F)[C@H]2O)c(=O)n1`
Ans. > 400 µg/mL

Qu. Now the same for [N-]=[N+]=NC1C(F)C(CO)OC1n1ccc(N)nc1=O (stereo not drawn)
Ans. > 400 µg/mL

Qu. Similarly, `Cc1cn([C@@H]2O[C@H](CO)[C@@H](F)[C@H]2N=[N+]=[N-])c(=O)[nH]c1=O` ?
Ans. > 400 µg/mL

Qu. Queued: `Nc1ncnc2c1ncn2[C@@H]1O[C@H](CO)[C@@H](F)[C@H]1O`
Ans. 40 µg/mL

Qu. Same again, this time with `O=c1ccn([C@@H]2O[C@H](CO)[C@@H](F)[C@H]2O)c(=O)[nH]1`
Ans. > 400 µg/mL

Qu. Next: [N-]=[N+]=NC1C(F)C(CO)OC1n1cnc2c(N)ncnc21 (stereo not drawn)
Ans. > 400 µg/mL

Qu. Request: `Cc1cn([C@H]2O[C@H](CO)[C@@H](F)[C@H]2N=[N+]=[N-])c(=O)[nH]c1=O`
Ans. > 400 µg/mL

Qu. What about `Nc1nc(O)c2ncn([C@@H]3O[C@H](CO)[C@@H](F)[C@H]3O)c2n1` ?
Ans. 400 µg/mL

====

Could you please report measured MIC for the items listed next?
- Tested on: Vero
- procedureDetails: Concentration (MIC), which is required to reduce virus-induced cytopathogenicity in African green monkey kidney (Vero B) cells against Sindbis virus
- Type: functional
- conditions: Chlorocebus sabaeus

Qu. API: value(readout=MIC, system=Vero) for record `Nc1nc(O)c2ncn([C@@H]3O[C@H](CO)[C@@H](F)[C@H]3O)c2n1`
Ans. 40 µg/mL

Qu. # repeat for `Cc1cn([C@@H]2O[C@H](CO)[C@@H](F)[C@H]2N=[N+]=[N-])c(=O)[nH]c1=O`
Ans. > 400 µg/mL

Qu. Another compound to check: [N-]=[N+]=NC1C(F)C(CO)OC1n1ccc(N)nc1=O (stereo not drawn)
Ans. > 400 µg/mL

====

- procedureDetails: Concentration (MIC)required to reduce virus-induced cytopathogenicity in Primary rabbit kidney (PRK ) cells against HSV-1 with a strain KOS
- Assay type: functional
- conditions: Oryctolagus cuniculus
Answer each item with its documented MIC.

Qu. Which value of MIC has been reported for `Nc1ccn([C@@H]2O[C@H](CO)[C@H](F)[C@H]2O)c(=O)n1` in the records?
Ans. > 400 µg/mL

Qu. Follow-up entry: `Cc1cn([C@@H]2O[C@H](CO)[C@@H](F)[C@H]2N=[N+]=[N-])c(=O)[nH]c1=O`
Ans. > 400 µg/mL

Qu. Same again, this time with [N-]=[N+]=NC1C(F)C(CO)OC1n1cnc2c(N)ncnc21 (stereo not drawn)
Ans. > 400 µg/mL

Qu. For [N-]=[N+]=NC1C(F)C(CO)OC1n1ccc(N)nc1=O (stereo not drawn) then?
Ans. > 400 µg/mL

Qu. One more compound: `Nc1nc(O)c2ncn([C@@H]3O[C@H](CO)[C@@H](F)[C@H]3O)c2n1`
Ans. > 100 µg/mL

Qu. Subsequent entry: `O=c1ccn([C@@H]2O[C@H](CO)[C@@H](F)[C@H]2O)c(=O)[nH]1`
Ans. > 400 µg/mL

Qu. Cool, now `Nc1ncnc2c1ncn2[C@@H]1O[C@H](CO)[C@@H](F)[C@H]1O`
Ans. > 10 µg/mL

Qu. Same for `Cc1cn([C@H]2O[C@H](CO)[C@@H](F)[C@H]2N=[N+]=[N-])c(=O)[nH]c1=O`
Ans. > 400 µg/mL

====

Kindly state MIC for each of the entries shown.
- procedureDetails: Concentration (MIC), required to reduce virus-induced cytopathogenicity in Primary rabbit kidney (PRK ) cells against Vesicular stomatitis virus type 2
- Format: functional
- conditions: Oryctolagus cuniculus

Qu. What measured MIC goes with `Cc1cn([C@H]2O[C@H](CO)[C@@H](F)[C@H]2N=[N+]=[N-])c(=O)[nH]c1=O` ?
Ans. > 400 µg/mL

Qu. Follow-up item: [N-]=[N+]=NC1C(F)C(CO)OC1n1cnc2c(N)ncnc21 (configuration not stated)
Ans. > 200 µg/mL

Qu. Entry `O=c1ccn([C@@H]2O[C@H](CO)[C@@H](F)[C@H]2O)c(=O)[nH]1` please
Ans. > 400 µg/mL

Qu. Can you handle [N-]=[N+]=NC1C(F)C(CO)OC1n1ccc(N)nc1=O (configuration not stated) next?
Ans. > 400 µg/mL

Qu. # repeat for `Nc1ncnc2c1ncn2[C@@H]1O[C@H](CO)[C@@H](F)[C@H]1O`
Ans. > 10 µg/mL

Qu. // query: `Nc1nc(O)c2ncn([C@@H]3O[C@H](CO)[C@@H](F)[C@H]3O)c2n1`
Ans. > 200 µg/mL

Qu. Thanks! And `Cc1cn([C@@H]2O[C@H](CO)[C@@H](F)[C@H]2N=[N+]=[N-])c(=O)[nH]c1=O` ?
Ans. > 400 µg/mL

====

- System: Vero
- procedureDetails: Concentration (MIC), which is required to reduce virus-induced cytopathogenicity in African green monkey kidney (Vero B) cells against Reo-virus-1
- Type: functional
- conditions: Chlorocebus sabaeus
measurementName: MIC

Qu. I would be grateful if you could share the reported MIC for [N-]=[N+]=NC1C(F)C(CO)OC1n1cnc2c(N)ncnc21 (stereo not drawn) .
Ans. > 200 µg/mL

Qu. And then `Cc1cn([C@@H]2O[C@H](CO)[C@@H](F)[C@H]2N=[N+]=[N-])c(=O)[nH]c1=O` , what is it?
Ans. > 400 µg/mL

Qu. Another molecule: `Nc1nc(O)c2ncn([C@@H]3O[C@H](CO)[C@@H](F)[C@H]3O)c2n1`
Ans. > 200 µg/mL

Qu. Check [N-]=[N+]=NC1C(F)C(CO)OC1n1ccc(N)nc1=O (stereo not drawn) too.
Ans. > 400 µg/mL

Qu. Item: `Cc1cn([C@H]2O[C@H](CO)[C@@H](F)[C@H]2N=[N+]=[N-])c(=O)[nH]c1=O`
Ans. > 400 µg/mL

Qu. What do you get for `Nc1ncnc2c1ncn2[C@@H]1O[C@H](CO)[C@@H](F)[C@H]1O` ?
Ans. 1 µg/mL

Qu. Continue with `Nc1ccn([C@@H]2O[C@H](CO)[C@H](F)[C@H]2O)c(=O)n1`
Ans. 150 µg/mL

Qu. Quick one: `O=c1ccn([C@@H]2O[C@H](CO)[C@@H](F)[C@H]2O)c(=O)[nH]1`
Ans. 150 µg/mL
